The reported measurements were obtained from patent US20200360341A1.

- assay_comment: Pharmacokinetics: indomethacin in blood plasma after oral administration
- Type: in vivo, rats (Sprague Dawley)
- condition_label: Sprague-Dawley, rat, plasma, 25 mg/kg, indomethacin measured by HPLC, read-out: maximal concentration of indomethacin in rat blood plasma (Cmax)
measured_parameter: Cmax (µg/mL)

cpd_smiles | measured_parameter | measure_unit | observed
COc1ccc2c(c1)c(CC(=O)O)c(C)n2C(=O)c1ccc(Cl)cc1 | Cmax | µg/mL | 65.5
